Origin of values: ChEMBL document CHEMBL4145690

# System: Adenomatous polyposis coli protein (Homo sapiens, UniProt P25054)
# Sequence (P25054 whole entry): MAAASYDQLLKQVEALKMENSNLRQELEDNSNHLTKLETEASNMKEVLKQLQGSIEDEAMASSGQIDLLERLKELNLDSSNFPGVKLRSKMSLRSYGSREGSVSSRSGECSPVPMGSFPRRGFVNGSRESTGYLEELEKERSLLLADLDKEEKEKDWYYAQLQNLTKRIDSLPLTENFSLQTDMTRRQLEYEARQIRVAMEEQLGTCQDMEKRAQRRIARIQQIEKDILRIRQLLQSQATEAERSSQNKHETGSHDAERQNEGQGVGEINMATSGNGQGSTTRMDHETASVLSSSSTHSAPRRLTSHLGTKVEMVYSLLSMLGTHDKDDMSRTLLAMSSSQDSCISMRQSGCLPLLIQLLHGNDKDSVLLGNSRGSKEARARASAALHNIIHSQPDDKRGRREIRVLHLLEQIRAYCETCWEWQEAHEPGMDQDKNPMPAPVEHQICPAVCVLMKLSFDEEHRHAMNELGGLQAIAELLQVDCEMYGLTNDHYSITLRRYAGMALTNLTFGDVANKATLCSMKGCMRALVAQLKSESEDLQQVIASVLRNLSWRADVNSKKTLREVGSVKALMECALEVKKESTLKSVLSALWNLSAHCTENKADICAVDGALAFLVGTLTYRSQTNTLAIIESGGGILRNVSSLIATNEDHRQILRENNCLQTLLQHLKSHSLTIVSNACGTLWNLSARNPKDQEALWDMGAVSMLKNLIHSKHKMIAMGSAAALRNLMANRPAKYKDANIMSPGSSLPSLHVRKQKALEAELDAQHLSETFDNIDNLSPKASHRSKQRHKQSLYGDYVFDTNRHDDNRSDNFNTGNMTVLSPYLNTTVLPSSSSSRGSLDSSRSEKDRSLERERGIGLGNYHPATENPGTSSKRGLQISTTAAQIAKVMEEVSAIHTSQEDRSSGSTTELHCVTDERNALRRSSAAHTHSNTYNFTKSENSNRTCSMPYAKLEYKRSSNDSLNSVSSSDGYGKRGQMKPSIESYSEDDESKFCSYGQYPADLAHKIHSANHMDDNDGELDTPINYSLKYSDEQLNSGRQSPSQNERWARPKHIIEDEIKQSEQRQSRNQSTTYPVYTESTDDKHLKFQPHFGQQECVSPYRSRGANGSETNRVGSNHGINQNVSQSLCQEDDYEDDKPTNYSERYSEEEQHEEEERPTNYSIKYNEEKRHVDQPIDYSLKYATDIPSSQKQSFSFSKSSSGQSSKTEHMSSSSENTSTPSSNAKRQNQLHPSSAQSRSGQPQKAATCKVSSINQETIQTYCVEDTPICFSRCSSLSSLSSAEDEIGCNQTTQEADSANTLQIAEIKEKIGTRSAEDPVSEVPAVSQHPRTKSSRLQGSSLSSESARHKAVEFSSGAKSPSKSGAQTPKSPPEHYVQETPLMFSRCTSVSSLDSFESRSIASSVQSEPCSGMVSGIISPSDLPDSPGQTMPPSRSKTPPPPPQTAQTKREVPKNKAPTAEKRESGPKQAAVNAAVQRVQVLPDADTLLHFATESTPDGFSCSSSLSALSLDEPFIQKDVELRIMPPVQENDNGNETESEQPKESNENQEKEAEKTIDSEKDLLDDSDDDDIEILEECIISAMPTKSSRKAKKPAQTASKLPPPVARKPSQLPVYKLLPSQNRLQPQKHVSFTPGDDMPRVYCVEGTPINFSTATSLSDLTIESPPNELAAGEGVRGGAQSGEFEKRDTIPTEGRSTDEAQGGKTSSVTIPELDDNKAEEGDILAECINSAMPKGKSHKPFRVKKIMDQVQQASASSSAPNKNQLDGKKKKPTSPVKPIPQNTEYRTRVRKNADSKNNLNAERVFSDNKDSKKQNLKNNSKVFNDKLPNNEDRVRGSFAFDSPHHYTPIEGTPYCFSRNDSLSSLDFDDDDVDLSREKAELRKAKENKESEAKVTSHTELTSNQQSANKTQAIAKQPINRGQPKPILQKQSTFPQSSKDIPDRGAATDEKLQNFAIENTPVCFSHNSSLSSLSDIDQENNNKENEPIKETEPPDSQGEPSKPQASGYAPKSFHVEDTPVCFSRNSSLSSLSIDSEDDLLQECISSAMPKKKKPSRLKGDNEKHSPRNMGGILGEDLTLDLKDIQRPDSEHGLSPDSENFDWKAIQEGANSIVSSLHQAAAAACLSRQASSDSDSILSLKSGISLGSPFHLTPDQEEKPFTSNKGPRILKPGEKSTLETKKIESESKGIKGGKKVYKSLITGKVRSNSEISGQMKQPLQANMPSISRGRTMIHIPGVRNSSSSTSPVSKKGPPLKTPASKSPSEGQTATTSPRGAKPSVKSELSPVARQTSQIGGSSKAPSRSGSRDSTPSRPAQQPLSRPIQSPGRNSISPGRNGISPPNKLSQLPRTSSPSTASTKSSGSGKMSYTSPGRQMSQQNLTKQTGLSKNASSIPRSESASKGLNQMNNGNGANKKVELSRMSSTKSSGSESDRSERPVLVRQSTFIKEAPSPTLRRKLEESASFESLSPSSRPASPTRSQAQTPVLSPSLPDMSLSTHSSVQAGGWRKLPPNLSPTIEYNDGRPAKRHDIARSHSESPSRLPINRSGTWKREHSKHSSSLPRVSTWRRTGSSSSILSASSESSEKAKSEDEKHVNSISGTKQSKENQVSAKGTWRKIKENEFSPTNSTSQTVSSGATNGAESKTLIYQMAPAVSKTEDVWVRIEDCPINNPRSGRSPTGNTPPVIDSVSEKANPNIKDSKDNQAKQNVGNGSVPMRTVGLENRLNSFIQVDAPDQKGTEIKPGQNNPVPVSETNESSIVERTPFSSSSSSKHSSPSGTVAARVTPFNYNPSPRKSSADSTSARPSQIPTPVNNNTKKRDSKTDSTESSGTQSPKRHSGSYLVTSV
*1 amine or outer side, *2 acyl side, *3 side chain or, on linkers, in order; H or OH if unused. Where a SMILES comes first, the peptide text is derived from it. [ ]: non-standard residue; d: D form. The star is where a group is joined. Leu(4,5-dehydro) = C=C(C)C[C@H](N)C(=O)O; 1Nal = N[C@@H](Cc1cccc2ccccc12)C(=O)O; Ala(cPent) = N[C@@H](CC1CCCC1)C(=O)O; X2 = C=C(Br)C[C@H](N[*:1])C(=O)[*:2]; Ala(cPr) = N[C@@H](CC1CC1)C(=O)O; 3Thi = N[C@@H](Cc1ccsc1)C(=O)O; Phg = N[C@H](C(=O)O)c1ccccc1; Cbz = O=C(OCc1ccccc1)*
Experimental endpoint: log10(IC50) (log10 of the value in µM)
Reminder: these figures are log10 of reported IC50, in µM before transformation.

Solved entries:
{"Compound": "C[C@H](NC(=O)OCc1ccccc1)C(=O)NCC(=O)N[C@@H](CCC(=O)O)C(=O)N[C@@H](CO)C(=O)N[C@@H](Cc1ccsc1)C(=O)N[C@@H](Cc1ccc(O)cc1)C(=O)N[C@@H](CCC(=O)O)C(N)=O (Cbz-AGES[3Thi]YE-NH2)", "log10(IC50)": 0.84}
{"Compound": "C[C@H](NC(=O)OCc1ccccc1)C(=O)NCC(=O)N[C@@H](CCC(=O)O)C(=O)N[C@@H](CO)C(=O)N[C@H](C(=O)N[C@@H](Cc1ccc(O)cc1)C(=O)N[C@@H](CCC(=O)O)C(N)=O)c1ccccc1 (Cbz-AGES[Phg]YE-NH2)", "log10(IC50)": 0.63}
{"Compound": "CSCC[C@H](NC(=O)[C@H](CO)NC(=O)[C@H](CCC(=O)O)NC(=O)CNC(=O)[C@H](C)NC(=O)OCc1ccccc1)C(=O)N[C@@H](Cc1ccc(O)cc1)C(=O)N[C@@H](CCC(=O)O)C(N)=O (Cbz-AGESMYE-NH2)", "log10(IC50)": 0.52}
{"Compound": "C[C@H](NC(=O)OCc1ccccc1)C(=O)NCC(=O)N[C@@H](CCC(=O)O)C(=O)N[C@@H](CO)C(=O)N[C@@H](Cc1cccc2ccccc12)C(=O)N[C@@H](Cc1ccc(O)cc1)C(=O)N[C@@H](CCC(=O)O)C(N)=O (Cbz-AGES[1Nal]YE-NH2)", "log10(IC50)": 1.00}
{"Compound": "C[C@H](NC(=O)OCc1ccccc1)C(=O)NCC(=O)N[C@@H](CCC(=O)O)C(=O)N[C@@H](CO)C(=O)N[C@@H](CC1CCCC1)C(=O)N[C@@H](Cc1ccc(O)cc1)C(=O)N[C@@H](CCC(=O)O)C(N)=O (Cbz-AGES[Ala(cPent)]YE-NH2)", "log10(IC50)": -0.21}
{"Compound": "C[C@H](NC(=O)OCc1ccccc1)C(=O)NCC(=O)N[C@@H](CCC(=O)O)C(=O)N[C@@H](CO)C(=O)N[C@@H](CC1CC1)C(=O)N[C@@H](Cc1ccc(O)cc1)C(=O)N[C@@H](CCC(=O)O)C(N)=O (Cbz-AGES[Ala(cPr)]YE-NH2)", "log10(IC50)": 0.10}
{"Compound": "C=C(Br)C[C@H](NC(=O)[C@H](CO)NC(=O)[C@H](CCC(=O)O)NC(=O)CNC(=O)[C@H](C)NC(=O)OCc1ccccc1)C(=O)N[C@@H](Cc1ccc(O)cc1)C(=O)N[C@@H](CCC(=O)O)C(N)=O (Cbz-AGES[X2]YE-NH2)", "log10(IC50)": 0.26}

Here is another compound to look at.
**Q:** Would you mind telling me what log10(IC50) value was observed for C=C(C)C[C@H](NC(=O)[C@H](CO)NC(=O)[C@H](CCC(=O)O)NC(=O)CNC(=O)[C@H](C)NC(=O)OCc1ccccc1)C(=O)N[C@@H](Cc1ccc(O)cc1)C(=O)N[C@@H](CCC(=O)O)C(N)=O (Cbz-AGES[Leu(4,5-dehydro)]YE-NH2) ?
**A:** 0.56
